Ref: patent US20200123233A1

# ASSAYED SYSTEM: T1, hRSV FTM- protein (membrane anchorless form of the fusion protein, 70 kDa) (human respiratory syncytial virus, UniProt P12568 26-524)
# T1 construct: extracellular domain
# METHOD DESCRIPTION: SPR (Biacore T100), FTM- amine-coupled on CM5 chip, 1:1 Langmuir fit
PARAMETER: koff

INSERT INTO assay_data (binder, parameter, experimental_value) VALUES
  ('LG192A8 (VHH) VHH: EVQLVESGGGLVQAGGSLRLSCAASERTVIAYTMGWFRRAPGKERDFVAAMNWNGGNTIYADSAKGRFTISRDNAKNTVYLQMNSLKAEDTAVYYCAARPRFWGSYEYDYWGQGTQVTVSS', 'koff', '0.000937 s⁻¹'),
  ('LG192H2 (VHH) VHH: EVQLVESGGGLVQAGGSLRLSCEASGRTFSNYAMGWFRQAPGKEREFVAVVTRWSGGRTVYADSVKGRFTISRDNAENTVYLQMNSLKPEDTAVYTCAADSTNRNSGAWYYTWAYDHWGQGTQVTVSS', 'koff', '0.0128 s⁻¹');

Here's the next entry for you.
Entry LG192F2 (VHH) VHH: EVQLVESGGGLVQAGGSLRLSCEASGRTFSPIAMGWFRQAPGKEREFVAVVTRWSGARTVYADSVKGRFTISRDNAENTVYLQMNSLKPEDTAVYTCAADSTNRNSGAIYYTWAYDYWGQGTQVTVSS has what koff?
0.00577 s⁻¹
